B1: Twister Ribozyme (parent)
chain: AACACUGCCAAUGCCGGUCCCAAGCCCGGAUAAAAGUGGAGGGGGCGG

# Variants of: B1
# testMethodNotes: self-cleavage, relative activity (ratio to wild type); higher = more cleavage; co-transcriptional
Classification field: enter yes for self-cleavage values not below 0.1, no for values below it.

Please review the entries below; each comes with its answer.
> print(dat)
   mutationannotation  labelclass
1           C20U G24A          no
2           C25A G48U          no
3           C27A G38A         yes
4            C3U C26G          no

stdin: hey, is self-cleavage for this one >= 0.1? G16A U18C
stdout: yes

stdin: hey, is self-cleavage for this one >= 0.1? G38A G42A
stdout: yes

stdin: hey, is self-cleavage for this one >= 0.1? C8A G44C
stdout: yes

stdin: hey, is self-cleavage for this one >= 0.1? A32U G44A
stdout: yes

stdin: hey, is self-cleavage for this one >= 0.1? A1C A33G
stdout: yes

stdin: hey, is self-cleavage for this one >= 0.1? A10C C21A
stdout: yes

stdin: hey, is self-cleavage for this one >= 0.1? C8A G36U
stdout: yes

stdin: hey, is self-cleavage for this one >= 0.1? A1U C25A
stdout: no

stdin: hey, is self-cleavage for this one >= 0.1? G42A G47A
stdout: yes

stdin: hey, is self-cleavage for this one >= 0.1? A33U G42U
stdout: yes

stdin: hey, is self-cleavage for this one >= 0.1? G17A G47C
stdout: yes
